The measurements presented in this section are drawn from PubChem BioAssay AID1851.

experimentalTarget: Cytochrome P450 3A4 (Homo sapiens) (UniProt P08684)
Sequence (P08684 whole entry, looked up): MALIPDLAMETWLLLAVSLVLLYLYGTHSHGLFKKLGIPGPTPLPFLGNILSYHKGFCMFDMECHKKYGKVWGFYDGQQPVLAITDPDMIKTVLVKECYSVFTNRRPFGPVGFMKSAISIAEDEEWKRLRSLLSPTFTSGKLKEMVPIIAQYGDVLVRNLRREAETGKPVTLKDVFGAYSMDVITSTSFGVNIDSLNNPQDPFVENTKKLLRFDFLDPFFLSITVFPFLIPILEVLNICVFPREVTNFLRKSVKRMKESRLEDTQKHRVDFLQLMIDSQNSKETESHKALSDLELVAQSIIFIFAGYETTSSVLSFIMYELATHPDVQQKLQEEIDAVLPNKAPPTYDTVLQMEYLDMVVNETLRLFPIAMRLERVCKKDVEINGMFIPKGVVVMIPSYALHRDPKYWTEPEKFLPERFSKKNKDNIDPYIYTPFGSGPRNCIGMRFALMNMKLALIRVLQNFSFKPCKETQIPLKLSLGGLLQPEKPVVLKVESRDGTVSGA
testName: Cytochrome panel assay with activity outcomes
conditionSet: recombinant CYP, pro-luciferin dealkylation, luminescence, p450-cyp3a4; series mostly up to 57.1 µM
Description: The P450 gene superfamily is involved in the metabolism and clearance of xenobiotics. This assay used various human CYP P450 isozymes to measure the dealkylation of various pro-luciferin substrates to luciferin. The luciferin is then measured by luminescence after the addition of a luciferase detection reagent. […] Inhibitors and some substrates limit the production of luciferin, and decrease measured luminescence. […] 8, Detection, 1 sec, ViewLux luminescent read […]
Hit rate of the full screen: of about 16,000 compounds, about 5,100 (32%) were called active. Another 25% or so got no clear call; they are omitted. Calls come from the whole dose curve; as a rule, active = well fitted curve in the direction sought with a large enough effect; inconclusive = small, poorly fitted or top-dose-only effect, or effect the other way; inactive = no such curve, though single readings can be large or run the other way. The list shows a part of the results.
Field 'call' accepts active, inactive

Field: example entries. Status: answers known.
CC1CCCC(n2c(=S)[nH]c3ccccc3c2=O)C1C (centres undefined) : active
COc1cc(/C=C2/C(=N)N3C=CSC3=NC2=O)ccc1OCCCOc1ccccc1C : active
COc1ccccc1CC(=O)O/N=C(\N)Cc1cccc2ccccc12 : active

So what was the verdict on Cc1c(NC(=O)/C=C/C(=O)O)cccc1[N+](=O)[O-] in this test? inactive

Item: CCn1c(COc2ccccc2)nnc1SCC(=O)Nc1cc(OC)ccc1OC active

Item: O=C(N/N=C1/C[C@@H](O)[C@@H](O)[C@@H]2[C@@H]3C(=O)N(Cc4ccc5c(c4)OCO5)C(=O)[C@H]3CC[C@@H]12)OCc1ccccc1 active

Item: OC(CNCc1ccc(F)cc1)(c1ccc(F)cc1)c1ccc(F)cc1 active

Item: CCOC(=O)Nc1ccc2c(c1)OCO2 active

Item: CC(N)=NCCCC[C@H](N)C(=O)O inactive

---

experimentalTarget: Cytochrome P450 3A4 (Homo sapiens) (UniProt P08684)
testName: Cytochrome panel assay with activity outcomes
conditionSet: recombinant CYP, pro-luciferin dealkylation, luminescence, p450-cyp3a4; series mostly up to 57.1 µM
Protocol: The P450 gene superfamily is involved in the metabolism and clearance of xenobiotics. This assay used various human CYP P450 isozymes to measure the dealkylation of various pro-luciferin substrates to luciferin. The luciferin is then measured by luminescence after the addition of a luciferase detection reagent. […] Inhibitors and some substrates limit the production of luciferin, and decrease measured luminescence. […] 8, Detection, 1 sec, ViewLux luminescent read […]
Hit rate of the full screen: of about 16,000 compounds, about 5,100 (32%) were called active. Inconclusive results (about 25%) are left out. Calls come from the whole dose curve; as a rule, active = well fitted curve in the direction sought with a large enough effect; inconclusive = small, poorly fitted or top-dose-only effect, or effect the other way; inactive = no such curve, though single readings can be large or run the other way. The list shows a part of the results.
Field 'call' accepts active, inactive

Field: example entries. Status: answers known.
Cc1cn2c(-c3ccncc3)nnc2s1 : inactive
COCCn1c(=O)c(-c2ccc(F)cc2)nc2cnc(N3CCOCC3)nc21 : inactive
COCCn1c(=O)c(C)nc2cnc(N3CCN(C)CC3)nc21 : inactive
Cc1nc2cnc(N3CCNCC3)nc2n(Cc2ccc(F)cc2)c1=O : active
COc1ccccc1-c1nc(NCc2cccnc2)c2ccccc2n1 : active
c1cc(-c2sc(-c3ccncc3)c(-c3ccncc3)c2-c2ccncc2)ccn1 : active
COc1cc(CNCCN2CCOCC2)ccc1OCc1ccccc1Cl : active
COc1cc(CNCc2ccccn2)ccc1OCc1ccc(Cl)cc1Cl : active
COC(=O)C/C=C\[C@@H](C)[C@@H](/C=N\OC[C@@H](O)[C@H]1O[C@H]2OC(C)(C)O[C@H]2[C@@H]1O)NS(=O)(=O)c1ccc(C)cc1 : active
Cc1nc2cnc(N3CCN(C)CC3)nc2n(C)c1=O : inactive

Now look at this entry.
So what was the verdict on COc1ccccc1-c1nc(NCc2cccs2)c2ccccc2n1 in this test? active

---

experimentalTarget: Cytochrome P450 3A4 (Homo sapiens)
testName: Cytochrome panel assay with activity outcomes
conditionSet: recombinant CYP, pro-luciferin dealkylation, luminescence, p450-cyp3a4; series mostly up to 57.1 µM
Experimental: The P450 gene superfamily is involved in the metabolism and clearance of xenobiotics. This assay used various human CYP P450 isozymes to measure the dealkylation of various pro-luciferin substrates to luciferin. The luciferin is then measured by luminescence after the addition of a luciferase detection reagent. […] Inhibitors and some substrates limit the production of luciferin, and decrease measured luminescence. […] 8, Detection, 1 sec, ViewLux luminescent read […]
In all, about 16,000 compounds went through this assay and about 5,100 (32%) were called active. Not shown: some 25% with an inconclusive outcome. The list shows a part of the results.
recordedMetric: AC50

The cases that follow already have their AC50 on record.
COC(=O)N1CCC2(CCN(C(=O)Nc3cccc(F)c3)CC2)CC1 : inactive
COc1ccc(OC)c(N(CC(=O)N2CCc3ccccc3C2)S(C)(=O)=O)c1 : inactive
COc1ccc(C(=O)N2CCC3(CCN(C(=O)Nc4cccc(F)c4)CC3)CC2)cc1 : inactive
COc1ccc(S(=O)(=O)N(CC(=O)N2CCCC2)Cc2ccccc2)cc1 : 4.47 µM (active)
O=C(Nc1cccc(F)c1)N1CCCC2(CCN(C(=O)c3ccncc3)CC2)C1 : 6.31 µM (active)

Using the record for O=C(Nc1cccc(F)c1)N1CCCC2(CCNCC2)C1 , report its AC50. 15.8 µM (active)

Item: Cc1ccc(S(=O)(=O)N2CCOCC2)cc1NC(=O)COC(=O)CCC(=O)c1cccs1 11.2 µM (active)

Item: COc1ccc(C(=O)N2CCC3(CCCN(C(=O)Nc4cccc(F)c4)C3)CC2)cc1 12.6 µM (active)

Item: Cc1cc(NC(=O)C2CCCC2)n(-c2nc3ccccc3[nH]2)n1 11.2 µM (active)

Item: Cc1cccc(CNc2nc(-c3ccoc3)nc3ccccc23)c1 6.31 µM (active)

Item: Cc1ccc(-c2ccc(/C=N/N3C(=O)C4C5C=CC(C6CC56)C4C3=O)o2)c([N+](=O)[O-])c1 (configuration not stated) 2.24 µM (active)

---

experimentalTarget: Cytochrome P450 3A4 (Homo sapiens) (UniProt P08684)
testName: Cytochrome panel assay with activity outcomes
conditionSet: recombinant CYP, pro-luciferin dealkylation, luminescence, p450-cyp3a4; series mostly up to 57.1 µM
In all, about 16,000 compounds went through this assay and about 5,100 (32%) were called active. Another 25% or so got no clear call; they are omitted. The call rests on the fitted dose curve; in most records, active means well fitted curve in the direction sought with a large enough effect; inconclusive means small, poorly fitted or top-dose-only effect, or effect the other way; inactive means no such curve, though single readings can be large or run the other way. This is one part of the list.
Field 'call' accepts t = active, f = inactive

CCSc1nc2c(c(=O)[nH]1)C(c1ccccn1)C1=C(CC(C)(C)CC1=O)N2 (centres undefined) : f
CC(C)n1cc(/C=C2/SC(=O)N(CC(=O)Nc3ccc4c(c3)OCO4)C2=O)c2ccccc21 : t
O=[N+]([O-])c1ccc(C=Nc2ccc(Cl)cc2Cl)s1 : f
CCOc1ccc(-n2c(SCC(=O)Nc3ccccc3C)n[nH]c2=O)cc1 : t
Cc1ccc(C(=O)N/N=C/c2ccc([N+](=O)[O-])s2)cc1 : f
O=C1c2cccnc2C(=O)N1Cc1ccc(F)cc1 : f
O=C(NC[C@@H](O)CO)c1c(I)c(C(=O)NC[C@@H](O)CO)c(I)c(N(CCO)C(=O)CO)c1I : f
CCOC(=O)N1CCN(C(=O)CN(C)S(=O)(=O)c2ccc3c(c2)C(C)(C)C(=O)N3C)CC1 : f
CNC[C@H](O)[C@H](O)[C@H](O)[C@H](O)CO : f
CCOC(=O)c1nc2sc(C)c(C)c2c(=O)[nH]1 : f

So what was the verdict on Cc1nn(C)c(Cl)c1S(=O)(=O)N[C@@H](c1ccccc1)[C@]1(C)C[C@H]1[C@@H](C)C(=O)Nc1ccc2ccccc2c1 in this test? t

Item: CCc1cccc(N(C)C(N)=Nc2cccc3ccccc23)c1 f

Item: CN(CC(=O)N1CCN(c2ccccc2)CC1)S(=O)(=O)c1cnc[nH]1 t

Item: C[C@@H](C(=O)Nc1ccc2ccccc2c1)[C@H]1C[C@]1(C)[C@H](NS(=O)(=O)c1ccc2ccccc2c1)c1ccccc1 t

Item: CC1(O)c2ccccc2C(=O)N1CCc1ccccc1F (centres undefined) f

Item: Cc1cccc(N2CCN(CC(=O)Nc3ccc(-n4cnnn4)cc3)CC2)c1C f

Item: C[C@@H](C(=O)Nc1ccc2ccccc2c1)[C@H]1C[C@]1(C)[C@H](NS(=O)(=O)c1ccc(-c2ccccc2)cc1)c1ccccc1 t

Item: COC(=O)C[C@@H]1O[C@H]1[C@H](C)[C@@H](OC)C(C)C t

Item: C[C@@H](C(=O)Nc1ccc2ccccc2c1)[C@@H]1C[C@@]1(C)[C@@H](NS(=O)(=O)c1ccc(-c2ccccc2)cc1)c1ccccc1 f

---

experimentalTarget: Cytochrome P450 3A4 (Homo sapiens)
testName: Cytochrome panel assay with activity outcomes
conditionSet: recombinant CYP, pro-luciferin dealkylation, luminescence, p450-cyp3a4; series mostly up to 57.1 µM
About 5,100 (32%) of roughly 16,000 compounds were called active. Another 25% or so got no clear call; they are omitted. Calls follow the shape of the dose curve; as a rule, active = well fitted curve in the direction sought with a large enough effect; inconclusive = small, poorly fitted or top-dose-only effect, or effect the other way; inactive = no such curve, though single readings can be large or run the other way. This is one part of the list.
Field 'call' accepts active, inactive

COC(=O)c1ccccc1NC(=O)c1cc2nc(C3CC3)cc(C(F)(F)F)n2n1 : inactive

So what was the verdict on Cc1ccc(Nc2nc(Cl)nc(N(C)C#N)n2)cc1 in this test? active

Item: C[C@@](N)(C(=O)O)c1ccc(P(=O)(O)O)cc1 inactive

Item: COc1ccccc1-c1ccc2ncnc(N3CCOCC3)c2c1 active

Item: CS(=O)(=O)Nc1cccc(-c2cncnc2NCc2cccs2)c1 active

Item: Cc1ccc(CN2C(=O)CCC2C(=O)NCc2cccnc2)cc1 (configuration not stated) active

Item: CCOc1c(Cl)cc(C(=O)Nc2ccccc2-c2ccccc2)cc1Cl active

Item: CS(=O)(=O)Nc1cccc(-c2cncnc2NCc2cccnc2)c1 active

Item: CN(C)C(=O)c1ccc(-c2ccc3ncnc(N4CCC(C(=O)O)CC4)c3c2)cc1 inactive

Item: Cc1cc(=O)oc(C)c1C(=O)NCc1ccccn1 inactive

Item: Cc1cc(Br)ccc1NCc1ccccn1 active

Item: CNCCc1ccccn1 inactive
